Entries and their measured TGI follow.
# Tested on: UO-31 renal
# assay-summary: NCI tumour cell line growth inhibition, 48 h
result-type: TGI

> print(dat)
                                    compound  result.type  readout.value
 1  FC(F)(F)c1cccc(Nc2nccc(-c3cnn4nc(-c5ccccc5)ccc34)n2)c1          TGI      > 23.1 µM
 2  C[C@]12CC[C@H]3[C@@H](CC=C4C[C@@H](O)CC[C@@]43C)[C@@H]1CC[C@@H]2N(CCO)CCO          TGI       > 100 µM
 3  O=C(O)C(CS)N=c1c2ccccc2n(O)c2ccccc12 (stereo not given)          TGI       > 100 µM
 4         O=C(N/N=C/c1ccco1)c1cc(I)cc(I)c1O          TGI        > 50 µM
 5    O=C(/C=C/c1c(O)ccc2ccccc12)c1cccc(O)c1          TGI       > 100 µM
 6  CC(C)(C)C1CCC2(CC1)c1[nH]c3ccccc3c1C1(CCC(C(C)(C)C)CC1)c1[nH]c3ccccc3c12 (stereo not given)          TGI       > 100 µM
 7  CC1S/C(=N/c2nnc(-c3ccccc3)o2)NC1=O (stereo not given)          TGI       > 100 µM
 8  O=C1CCCCN1CCCCC#Cc1ccccc1C#Cc1ccc([N+](=O)[O-])cc1          TGI        84.6 µM
 9  CCOn1c(C2(CC3CCN(C(=O)c4ccccc4)CC3)OCCO2)cc2ccccc21          TGI        26.9 µM
10  COc1cc(C2NC(=O)c3ccccc3N2)ccc1OCCCCCOc1c(OC)cc(C2=NOC(c3cc(OC)c(OC)c(OC)c3)C2)cc1OC (stereo not given)          TGI       > 100 µM
11  COCc1nc2c(OC)cc(-c3nc4ccc(N5CCN(C)CC5)cc4[nH]3)c(OC)c2[nH]1          TGI       > 100 µM
12  C=CCOCCCCC(C(C)=O)C(=O)OC (stereo not given)          TGI       > 100 µM
13  COC(=O)Cc1c([C@H]2[C@H](CC(=O)OC)c3ccccc3N2C(C)=O)[nH]c2ccccc12          TGI       > 100 µM
14  COc1ccc(-c2cc(=O)c3c(OC)c(OC)c(OC)cc3o2)cc1          TGI        87.7 µM
15   CC1(C)C=C(S(=O)(=O)c2ccccc2)Oc2ccccc2O1          TGI        86.2 µM
16                 NC(=O)c1cc2ccccc2o/c1=N/O          TGI       > 100 µM
17  CCOc1cc(-c2nc3ccccn3c2/N=C/c2cc(Br)ccc2O)ccc1O          TGI        84.6 µM
18                    Brc1cccc(N=NN2CCCC2)c1          TGI       > 100 µM
19  CC(C)C(=O)NC(=S)Nc1ccc([N+](=O)[O-])cc1C#N          TGI       > 100 µM
20  Nc1c(C(=O)c2ccc(Cl)cc2)[nH]c(NCc2ccccc2)c1C(=S)Nc1ccccc1          TGI        3.02 µM
21  COc1ccc(-c2c(C#N)c(N)nc3c2CCS(=O)(=O)c2ccccc2-3)cc1          TGI       > 100 µM
22         COc1cc(/C=C\C(=O)O)ccc1OCc1ccccc1          TGI       > 100 µM
23  CCOC(=O)C(NC(=O)CC(C)C)(N1CCN(c2cc3c(cc2F)c(=O)c(C(=O)O)cn3C2CC2)CC1)C(F)(F)F (stereo not given)          TGI        49.6 µM
24  Brc1ccc2c(-c3csc(-c4c[nH]c5cc(Br)ccc45)n3)c[nH]c2c1          TGI       > 100 µM
25  NC(N)=NS(=O)(=O)c1ccc(NC(=O)c2ccc3nc4ccccc4c(Nc4ccc(S(=O)(=O)N=C(N)N)cc4)c3c2)cc1          TGI       > 100 µM
26  N#Cc1ccc(O)c(C2=NCC(c3cccc(Oc4ccccc4)c3)O2)c1 (stereo not given)          TGI        2.75 µM
27              COc1c(Br)cc(CC(N)=O)c(O)c1Br          TGI       > 100 µM
28       Brc1cccc(C=NC23CC4CC(CC(C4)C2)C3)c1          TGI       > 100 µM
29  Cn1c2ccccc2n2c(=O)c3cc([N+](=O)[O-])ccc3c(C#N)c12          TGI       > 100 µM
30       O=c1c2cc([N+](=O)[O-])ccc2sc2ccsc12          TGI       > 100 µM
